Origin of measurements: PubChem BioAssay

Assay text: RAM signaling pathway blockade in yeast – S. cerevisiae, Pdr1DBD-CYC8 efflux-inhibited sensitized strain, primary screen (AID 1298);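 further: 0% = DMSO untreated cells without growth and 100% = 10 µM 1-NA-PP1 full growth; higher means more yeast growth rescued from 5-FOA killing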
Test parameters: S. cerevisiae cbk1-as DSE1-URA3 strain, 5-FOA growth OD615, 2 d; at 50 µM; hits give high values
Readout label: RAM network inhibition (%)
Unit % implied. Number only.

Below are worked cases with known answers.
Name the recorded RAM network inhibition for `CC1(C)Cc2c(sc3c2c(=N)n(Cc2ccco2)c(=O)n3CC(=O)Nc2cccc(Cl)c2)CO1` . 5.15

Name the recorded RAM network inhibition for N#CCCN1CCN(S(=O)(=O)c2ccc(S(=O)(=O)NCC3CCCO3)cc2)CC1 (stereo not given) . -2.15

Name the recorded RAM network inhibition for `N#C/C(=C(/O)CN1C(=O)c2ccccc2C1=O)c1nc2ccccc2[nH]1` . 4.04

Name the recorded RAM network inhibition for `CCCn1c(CN2CCN(c3cccc(Cl)c3)CC2)nc2c1c(=O)n(C)c(=O)n2C` . 1.38

// next item, RAM network inhibition requested
Name the recorded RAM network inhibition for Oc1c(C(c2ccccc2)N2CCCCC2)sc2ncnn12 (stereo not given) . 0.66

###

Assay text: growth inhibitors of H69AR lung tumor, primary screen, human, duplicate replicates (AID 580);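 further: 100% = mean luminescence of untreated wells and 0% = no signal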
Test parameters: H69AR lung tumor cells viability, ATP luminescence, 72 h; at 10 µM; hits give low values
Activity calls are given as the source filed them.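 Rule for the calls: active = viability at or under a set limit in both replicates, limit being median viability minus 3 SD (cut at about 48% in these data, passing the limit was not always enough); inconclusive = at or under the limit in just one replicate; inactive = at or above the limit in both replicates.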
Readout label: viability

Name the recorded viability for O=C(NC(C(=O)c1ccccc1)n1ccc(=O)[nH]c1=O)c1ccccc1 (stereo unspecified) . 91.2% (inactive)

New cases:
Name the recorded viability for `O=C(c1ccccc1Br)N1CCN(c2ccccc2)CC1` . 102% (inactive)

Name the recorded viability for `CCCNS(=O)(=O)c1ccc(OCC(=O)NCc2ccc3c(c2)OCO3)cc1` . 94.1% (inactive)

Name the recorded viability for O=C(NCC(=O)N(c1ccc2c(c1)OCCO2)C(C(=O)NC1CCCC1)c1ccco1)c1ccco1 (stereo unspecified) . 92.1% (inactive)

Name the recorded viability for `CCc1ccccc1NC(=O)CSc1ncn[nH]1` . 103% (inactive)

Name the recorded viability for `COCCn1c(=NC(=O)CSC(C)=O)sc2cc(F)ccc21` . 58.2% (inactive)

###

A collection of compounds and their measured growth inhibition
Assay text: Restrictive medium S. cerevisiae growth inhibition, OD615, pilot screen of yeast lifespan reduction project, restrictive growth control (AID 706);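 further: modified DeaD lifespan yeast strain shifted to restrictive glucose medium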
Test parameters: OD615, 48 h, at 10 µM, hits give high values
Unit % implied. Number only.

Name the recorded growth inhibition for `Cc1onc(-c2ccccc2Cl)c1C(=O)N1CCN(c2cccc(Cl)c2)CC1` . -13.7

New cases:
Name the recorded growth inhibition for `O=C(CSCC(=O)NC1CC1)Nc1ccccc1` . -11.9

Name the recorded growth inhibition for `Cc1ccnc(SCCn2c(N3CCCCC3)nc3c2c(=O)[nH]c(=O)n3C)n1` . -5.05

###

Assay text: growth inhibitors of H69AR lung tumor, primary screen, human, duplicate replicates (AID 580);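 further: 100% = mean luminescence of untreated wells and 0% = no signal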
Test parameters: H69AR lung tumor cells viability, ATP luminescence, 72 h; at 10 µM; hits give low values
Calls of active or inactive are those of the source.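 Rule for the calls: active = viability at or under a set limit in both replicates, limit being median viability minus 3 SD (cut at about 48% in these data, passing the limit was not always enough); inconclusive = at or under the limit in just one replicate; inactive = at or above the limit in both replicates.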
A collection of compounds and their measured viability

Below are worked cases with known answers.
Name the recorded viability for `CN(C)/C=C(\C#N)c1nc2ccccc2[nH]1` . 98% (inactive)

Name the recorded viability for `O=C(O)CCc1ccc(-c2cccs2)n1CCC(=O)O` . 85.8% (inactive)

New cases:
Name the recorded viability for `COc1ccc(C(=O)Nc2cccc(C)c2)cc1S(=O)(=O)N1CCOCC1` . 93.2% (inactive)

Name the recorded viability for `COc1cc(C(=O)OCC(=O)N(C)Cc2ccccc2)cc(OC)c1OC` . 94.8% (inactive)

###

Assay text: HUVEC growth inhibition – cell-based, human, primary screen (AID 575);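 further: 100% = median of untreated cell wells with 0.1% DMSO on each plate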
Test parameters: HUVEC proliferation, CellTiter-Glo luminescence, 72 h; at 10 µM; hits give low values
A collection of molecules and their measured viability
Unit % implied. Number only.

Name the recorded viability for Cc1c(C(=O)O)sc2nc3n(c(=O)c12)CCC(C)CC3 (centres undefined) . 82.2

Name the recorded viability for `O=S(=O)(NCCCCCNS(=O)(=O)c1ccccc1)c1ccccc1` . 112

Name the recorded viability for `O=C(CSc1nnc(-c2ccc(Br)o2)n1Cc1ccccc1)c1ccccc1F` . 86.3

Name the recorded viability for `CCN(CC)CCn1c2ccccc2c2nc(C)sc21` . 104

Name the recorded viability for `c1ccc2c(c1)CNC1(CCCCC1)C2` . 103

Name the recorded viability for `O=C(c1ccco1)N1CCN(c2ccc(Cl)cc2)CC1` . 95.6

New cases:
Name the recorded viability for `CC(C)CNS(=O)(=O)c1ccc(OCC(=O)Nc2ccc3c(c2)OCO3)c(Cl)c1` . 58.6

Name the recorded viability for `O=c1ccc2cc3c([nH]c4ccc(Br)cc43)oc-2c1O` . 91.7

Name the recorded viability for `CCOC(=O)c1c(NCc2ccc3c(c2)OCO3)c2ccccc2[nH]c1=O` . 100

Name the recorded viability for `Cc1cc(Nc2ccccc2)n(CCC#N)n1` . 105

Name the recorded viability for `O=C(CSc1nnnn1-c1ccc(Cl)cc1)NC(=O)Nc1ccc2c(c1)OCCO2` . 66.9

Name the recorded viability for OC(CNCC1COc2ccccc2O1)COCc1cccs1 (centres undefined) . 87.5

Name the recorded viability for `CCn1c(C)cc(=S)c2ccccc21` . 98.6

###

Assay text: growth inhibitors of H69AR lung tumor, primary screen, human, duplicate replicates (AID 580);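 further: 100% = mean luminescence of untreated wells and 0% = no signal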
Test parameters: H69AR lung tumor cells viability, ATP luminescence, 72 h; at 10 µM; hits give low values
Readout label: viability (%)
Unit % implied. Number only.

Below are worked cases with known answers.
Name the recorded viability for `c1cncc(-c2nnc(SCCSc3nnc(-c4cccnc4)o3)o2)c1` . 91.9

Name the recorded viability for `Cc1onc(-c2ccccc2)c1C(=O)N[C@@H]1C(=O)N2[C@@H]1SC(C)(C)[C@@H]2C(=O)O` . 101

Name the recorded viability for `CC1(C)O[C@@H]2C[C@H]3[C@@H]4CCC5=CC(=O)C=C[C@]5(C)[C@@]4(F)[C@@H](O)C[C@]3(C)[C@]2(C(=O)CO)O1` . 92.8

New cases:
Name the recorded viability for `Cc1ccc(-c2cc(C(=O)NCc3ccc4c(c3)OCO4)no2)cc1` . 90.8

Name the recorded viability for `Cc1ccc(C(=O)NCc2ccc3c(c2)OCO3)cc1S(=O)(=O)N1CCCCC1` . 96.2

Name the recorded viability for `O=C(Nc1c(-c2ccccc2)nc2ccccn12)c1ccco1` . 103

Name the recorded viability for Cn1c(=O)c2c(ncn2CC(=O)OCC(=O)NC2CCCc3ccccc32)n(C)c1=O (configuration not stated) . 97.7

Name the recorded viability for `Cc1cccc(N2CCN(C(=O)Cn3ccc4ccccc4c3=O)CC2)c1C` . 95

Name the recorded viability for Cc1nc2sc(C(c3cccc(F)c3)N3CCOCC3)c(O)n2n1 (configuration not stated) . 94.7

Name the recorded viability for `O=C(CS(=O)(=O)Cc1ccccc1)N1CCc2ccccc2C1` . 101

Name the recorded viability for CC(C(=O)c1ccccc1)n1cnc2ccccc2c1=O (configuration not stated) . 89.6

###

Assay text: Restrictive medium S. cerevisiae growth inhibition, OD615, pilot screen of yeast lifespan reduction project, restrictive growth control (AID 706);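 further: modified DeaD lifespan yeast strain shifted to restrictive glucose medium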
Test parameters: OD615, 48 h, at 10 µM, hits give high values
A collection of molecules and their measured growth inhibition
Unit % implied. Number only.

Name the recorded growth inhibition for `Cc1cc(N2CCOCC2)nc2cc(O)ccc12` . -15.5

New cases:
Name the recorded growth inhibition for CCOC(=O)c1c(NC(=O)CN2CCCCC2)sc2c1CCCC2O (configuration not stated) . -0.48

Name the recorded growth inhibition for `CN(C)c1ccc(NC(=S)c2ccccn2)cc1` . -11.2

###

A collection of compounds and their measured inhibition
Assay text: inhibitors of the yeast RAM network, pilot screen, dse1pr::URA3 reporter, 5-FOA selection (AID 869);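 further: 0% = DMSO wells with no growth and 100% = 10 µM 1-NA-PP1 with full growth; RAM network block rescues cells from 5-FOA so hits raise OD615 growth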
Test parameters: S. cerevisiae dse1pr::URA3 5-FOA growth, OD615, 2 d; at 10 µM; hits give high values; strain carries analog-sensitive mutant Cbk1 kinase
Unit % implied. Number only.

Name the recorded inhibition for COc1ccc(C2C(C(=O)c3ccco3)=C(O)C(=O)N2CCc2ccccc2)cc1OC (stereo not given) . 5.36

Name the recorded inhibition for CCOc1ccc(C2CC(c3ccc(CC)cc3)Nc3nc(N)nn32)cc1 (stereo not given) . 0.69

Name the recorded inhibition for `CCOc1ccc2nc(N3CCC(C(=O)N4CCN(c5ccccn5)CC4)CC3)sc2c1` . -0.605

Name the recorded inhibition for COc1ccc(C2C(C(=O)NC(C)C)c3ccccc3C(=O)N2C)cc1OC (stereo not given) . 0.95

Name the recorded inhibition for Cc1cccc(N2CCN(C(c3cccs3)c3nnnn3C(C)(C)C)CC2)c1C (stereo not given) . 0.97

Name the recorded inhibition for `O=C(Nc1cccc2c1CCCC2)c1ccc(Br)o1` . 2.19

Name the recorded inhibition for `CC(=O)NCC(=O)N(c1c(C)n(C)n(-c2ccccc2)c1=O)C1(C(=O)NC2CCCC2)CCCCC1` . 1.13

Name the recorded inhibition for `c1ccc(CSc2nnc(-c3ccncc3)o2)cc1` . 0.73

Name the recorded inhibition for Cc1cc(=O)oc(C)c1C(=O)N1CCc2c([nH]c3ccccc23)C1C(C)C (stereo not given) . 1.1

Name the recorded inhibition for CC(=O)c1ccc(OCC(O)CN2CCN(Cc3ccccc3)CC2)cc1 (stereo not given) . -0.305

Name the recorded inhibition for `CCOc1nonc1C(=N)/C(C(C)=O)=C(\C)O` . 1.42

Name the recorded inhibition for `Cc1nc2c3c4c(sc3n3c(SCC(=O)NCc5ccco5)nnc3n2n1)COC(C)(C)C4` . 1.85

Name the recorded inhibition for CC1CCCN(Cc2nc3c(c(=O)n(C)c(=O)n3C)n2Cc2cccc3ccccc23)C1 (stereo not given) . 1.08

Name the recorded inhibition for COC(=O)C(C)NC(=O)C1CCCN1S(=O)(=O)c1cc(C)c(Cl)cc1C (stereo not given) . 0.935
